- assay text: Quantitative High-Throughput drug screen in 47 multiple myeloma cell lines against the NCATS MIPE library collection: ARP1_JJKsccF8 cell viability assay (AID 1918928; also: nearly all actives have a fitted effect of over 40% in size)
- stated conditions: ARP1 myeloma cells viability, CellTiter-Glo ATP, 48 h; series mostly up to 45.8 µM
- Excerpt: PI: Beverly A. Mock Ph.D. Laboratory of Cancer Biology and Genetics, Center for Cancer Research, National Cancer Institute, National Institute of Health, Bethesda, Maryland […] 5; Detector; 425V; Luminescence; Viewlux PerkinElmer. […] 1. […] Briefly, the corresponding myeloma cell lines were screened in 1,536-well plates with 500 cells, 5-uL per well for inhibition of cell viability (assessed by measuring ATP levels with CellTiterGlo). […]
Inconclusive results are not listed. Calls of active or inactive are those of the source. Calls follow the shape of the dose curve; as a rule, active = well fitted cell-killing curve with a large enough effect; inconclusive = small, poorly fitted or top-dose-only effect, or effect the other way; inactive = no such curve, though single readings can be large or run the other way. Starred links: 1 amine or outer side, 2 acyl side, 3 side chain; linkers in the order of their positions; H or OH if unused. Positions of bridges follow the written chain, without caps; N, C: chain ends. Non-standard residues stand in square brackets, D forms with d. Residues, ends and D or L forms follow the SMILES beside them. Chains are numbered I, II in the order given. Actinocin(9to1) = Cc1c2oc3c(C)ccc(C(=O)[*:1])c3nc-2c(C(=O)[*:2])c(N)c1=O; NMeV = CN[CH](C(=O)O)C(C)C; Sar = CNCC(=O)O
Labels: active, inactive

compound: CCCCCCCCCCCCCCCC(=O)OC[C@@H](NC(=O)C(Cl)Cl)[C@H](O)c1ccc([N+](=O)[O-])cc1
class: inactive

compound: COc1cc(O)c2c(c1)C1OC1C[C@H](O)[C@H](O)C(=O)C=CC[C@H](C)OC2=O (some centres not stated)
class: active

compound: COc1cc(C(=O)NC2CCN(C)CC2)ccc1Nc1ncc2c(n1)N(C1CCCC1)CCC(=O)N2C(C)C
class: active

compound: Cn1cc(C=CC(=O)c2cccc(F)c2)cc1C=CC(=O)NO
class: active

compound: Cc1cc(Nc2ncc3c(n2)N(C)C(=O)N(c2cc(NC(=O)c4cccc(C(F)(F)F)c4)ccc2C)C3)n(C)n1
class: active

compound: Cc1c2oc3c(C)ccc(C(=O)NC4C(=O)NC(C(C)C)C(=O)N5CCCC5C(=O)N(C)CC(=O)N(C)C(C(C)C)C(=O)OC4C)c3nc-2c(C(=O)NC2C(=O)NC(C(C)C)C(=O)N3CCCC3C(=O)N(C)CC(=O)N(C)C(C(C)C)C(=O)OC2C)c(N)c1=O (configuration not stated) (I: TVP[Sar][NMeV] / II: TVP[Sar][NMeV]; ester I:1-I:C, II:1-II:C; linker I:N-II:N via Actinocin(9to1); configuration not given here)
class: inactive

compound: Oc1cc(-c2nc(-c3ccccc3)[nH]c2-c2ccncc2)ccc1Cl
class: active

compound: Cc1ccc2nc(NCCN)c3ncc(C)n3c2c1
class: active

compound: Cc1ccc([N+](=O)[O-])cc1S(=O)(=O)N(C)N=Cc1cnc2ccc(Br)cn12
class: active

compound: C[C@H]1COc2c(N3CCN(C)CC3)c(F)cc3c(=O)c(C(=O)O)cn1c23
class: inactive

compound: CN(C)CC(=O)N1CCC(c2ccc(NC(=O)c3ncc(C#N)[nH]3)c(C3=CCCCC3)c2)CC1
class: inactive

compound: C=CC(=O)Nc1cc(NC(=O)c2ccc(C)c(NC(=O)c3ccno3)c2)cc(C(F)(F)F)c1
class: active

compound: CN[C@H](CC(C)C)C(=O)N[C@H]1C(=O)N[C@@H](CC(N)=O)C(=O)N[C@@H]2C(=O)N[C@H]3C(=O)N[C@H](C(=O)N[C@H](C(=O)O)c4cc(O)cc(O)c4-c4cc3ccc4O)[C@H](O)c3ccc(c(Cl)c3)Oc3cc2cc(c3O[C@@H]2O[C@H](CO)[C@@H](O)[C@H](O)[C@@H]2O[C@H]2C[C@](C)(N)[C@H](O)[C@H](C)O2)Oc2ccc(cc2Cl)[C@H]1O
class: inactive

compound: CC(Oc1ccc(O)cc1)(P(=O)(O)O)P(=O)(O)O
class: inactive

compound: CC(=O)N1CCN(c2ccc(OCc3nn(C)c(C)c3-c3cccc4c(CCCOc5cccc6ccccc56)c(C(=O)O)n(Cc5cccnc5)c34)cc2)CC1
class: active

compound: CCc1nc(-c2cccc(C)c2)c(-c2ccnc(NC(=O)c3ccccc3)c2)s1
class: active

compound: C[C@@H]1[C@H](C)CC[C@]2(C(=O)O)CC[C@]3(C)C(=CC[C@@H]4[C@@]5(C)C[C@@H](O)[C@H](O)[C@@](C)(CO)[C@H]5CC[C@]43C)[C@@H]12
class: inactive

----------
- assay text: qHTS of pediatric cancer cell lines to identify multiple opportunities for drug repurposing: Primary screen for TC32 cells (AID 1347089); also: nearly all actives have a fitted effect of over 60% in size; also: potency is read from the fitted curve at half-maximal effect
- stated conditions: TC32 Ewing sarcoma viability, CellTiter-Glo luminescence, 48 h; series mostly up to 45.8 µM
- Procedure: Drug repurposing or repositioning has been offered as a strategy for drug development in oncology programs. […] [1] Shen, M et al. Quantitative high-throughput phenotypic screening of pediatric cancer cell lines identifies multiple opportunities for drug repurposing. […] Cells were assayed in growth media at a density of 500-1,000 cells/well. […] After a 15min incubation at room temperature, samples were analyzed for luminescence intensity using a ViewLux High-throughput CCD imager equipped with clear filters.
Records with an inconclusive call do not appear. Active and inactive are the calls of the source. The call rests on the fitted dose curve; in most records, active means well fitted cell-killing curve with a large enough effect; inconclusive means small, poorly fitted or top-dose-only effect; inactive means flat fitted curve, though single readings scatter. Positions of bridges follow the written chain, without caps; N, C: chain ends. Non-standard residues stand in square brackets, D forms with d. Residues, ends and D or L forms follow the SMILES beside them. ξ: configuration not given here. *: point of attachment. Octanoyl(6-Me) = CCC(C)CCCCC(=O)*; ξThr(3R) = C[C@@H](O)C(N)C(=O)O; dDab = NCC[C@@H](N)C(=O)O; Dab = NCC[C@H](N)C(=O)O

compound: C[C@H]1O[C@H](O[C@H]2[C@H](O)[C@@H](O)[C@@H](O[C@H]3[C@H](O)[C@@H](O)C(O)O[C@H]3CO)O[C@H]2CO)[C@H](O)[C@@H](O)[C@H]1N[C@H]1C=C(CO)[C@@H](O)[C@H](O)[C@@H]1O (stereo partly specified)
Potency: inactive
//
compound: CN(C)CC(=O)N1CCC(c2ccc(NC(=O)c3ncc(C#N)[nH]3)c(C3=CCCCC3)c2)CC1
Potency: inactive
//
compound: CC(=O)NCC(=O)N1[C@H]2CC[C@H]1c1cc(Nc3ncc(C(F)(F)F)c(NC4CCC4)n3)ccc12
Potency: 131 nM (active)
//
compound: Cc1ccc([N+](=O)[O-])cc1S(=O)(=O)N(C)N=Cc1cnc2ccc(Br)cn12
Potency: 82.9 nM (active)
//
compound: CC(=O)N[C@@H]1[C@H](O[C@@H]2c3ccc(c(Cl)c3)Oc3cc4cc(c3O[C@H]3O[C@H](CO)[C@@H](O)[C@H](O)[C@H]3NC(=O)CCCCCCCC(C)C)Oc3ccc(cc3Cl)C[C@H]3NC(=O)[C@H](N)c5ccc(O)c(c5)Oc5cc(O)cc(c5)[C@H](NC3=O)C(=O)N[C@H]4C(=O)N[C@H]3C(=O)N[C@@H]2C(=O)N[C@@H](C(=O)O)c2cc(O)cc(O[C@H]4O[C@H](CO)[C@@H](O)[C@H](O)[C@H]4O)c2-c2cc3ccc2O)O[C@H](CO)[C@@H](O)[C@@H]1O
Potency: inactive
//
compound: CCC(C)CCCCC(=O)N[C@@H](CCN)C(=O)NC(C(=O)N[C@H](CCN)C(=O)N[C@@H]1CCNC(=O)C([C@@H](C)O)NC(=O)[C@@H](CCN)NC(=O)[C@@H](CCN)NC(=O)[C@@H](CC(C)C)NC(=O)[C@H](Cc2ccccc2)NC(=O)[C@H](CCN)NC1=O)[C@@H](C)O (stereo partly drawn) ({Octanoyl(6-Me)}-[Dab][ξThr(3R)][dDab][dDab][Dab]F[dL][dDab][dDab][ξThr(3R)]; lactam 4-C)
Potency: inactive
//
compound: C[C@H]1COc2c(N3CCN(C)CC3)c(F)cc3c(=O)c(C(=O)O)cn1c23
Potency: inactive
//
compound: Cn1cc(CNCC2CCN(c3ncc(C(=O)NO)cn3)CC2)c2ccccc21
Potency: 415 nM (active)
//
compound: COc1cc([C@@H]2c3cc4c(cc3[C@@H](O[C@@H]3O[C@@H]5CO[C@@H](c6cccs6)O[C@@H]5[C@H](O)[C@@H]3O)[C@H]3COC(=O)[C@H]23)OCO4)cc(OC)c1O
Potency: 208 nM (active)
//
compound: C[C@@H]1[C@H](C)CC[C@]2(C(=O)O)CC[C@]3(C)C(=CC[C@@H]4[C@@]5(C)C[C@@H](O)[C@H](O)[C@@](C)(CO)[C@H]5CC[C@]43C)[C@@H]12
Potency: inactive
//
compound: Oc1cc2c(cc1O)C1c3ccc(O)c(O)c3OCC1(O)C2 (stereo unspecified)
Potency: inactive
//
compound: Cc1cn([C@@H]2O[C@H](CO)[C@@H](O)[C@H]2F)c(=O)[nH]c1=O
Potency: inactive
//
compound: CN(C)c1ccc2cc(C(=O)N[C@@H](CCCN=C(N)CCl)C(=O)NCc3ccccc3)ccc2c1
Potency: inactive
//
compound: CC1(C)O[C@@H]2C[C@H]3[C@@H]4CCC5=CC(=O)C=C[C@]5(C)[C@@H]4[C@@H](O)C[C@]3(C)[C@]2(C(=O)CO)O1
Potency: inactive
//
compound: C[C@@H](Oc1ccc2[nH]nc(C=Cc3cnn(CCO)c3)c2c1)c1c(Cl)cncc1Cl
Potency: 18600 nM (active)
//
compound: COc1cc2c(cc1O)CCC1C2CC[C@@]2(C)C1CC[C@@H]2O (stereo partly specified)
Potency: 18600 nM (active)
